Target of assay: Cytochrome P450 2C9 (Homo sapiens, UniProt P11712)
Sequence (P11712 whole entry): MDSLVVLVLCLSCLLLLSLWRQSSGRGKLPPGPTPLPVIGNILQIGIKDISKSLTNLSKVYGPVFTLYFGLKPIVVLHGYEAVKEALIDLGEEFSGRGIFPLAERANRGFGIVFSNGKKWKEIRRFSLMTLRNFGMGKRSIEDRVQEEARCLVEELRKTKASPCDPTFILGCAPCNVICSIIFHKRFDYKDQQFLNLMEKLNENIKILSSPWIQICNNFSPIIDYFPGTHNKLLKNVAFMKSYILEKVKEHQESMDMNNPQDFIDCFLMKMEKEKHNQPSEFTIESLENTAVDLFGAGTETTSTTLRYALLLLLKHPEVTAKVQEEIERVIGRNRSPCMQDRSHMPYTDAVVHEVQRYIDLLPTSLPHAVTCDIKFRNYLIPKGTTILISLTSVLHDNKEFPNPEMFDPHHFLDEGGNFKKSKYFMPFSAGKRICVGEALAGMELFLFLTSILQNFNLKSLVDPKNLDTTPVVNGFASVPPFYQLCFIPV
pIC50: −log10 of the molar value.

| Compound structure | Target of assay | pIC50 |
| --- | --- | --- |
| N#Cc1cnccc1COc1cnc(N2CC3CCC(C2)N3C(=O)OCC(F)(F)F)nc1 | Cytochrome P450 2C9 (Homo sapiens, UniProt P11712) | < 4.52 |
| N#Cc1cnccc1COc1cnc(N2CCN(C(=O)OCC(F)(F)F)CC2)nc1 | Cytochrome P450 2C9 (Homo sapiens, UniProt P11712) | < 4.52 |

====

Listed here: molecules with reported IC50 for Cytochrome P450 2C19 (Homo sapiens).

| Compound structure | Target of assay | IC50 |
| --- | --- | --- |
| N#Cc1cnccc1COc1cnc(N2CCN(C(=O)OCC(F)(F)F)CC2)nc1 | Cytochrome P450 2C19 (Homo sapiens) | > 30 µM |
| N#Cc1cnccc1COc1cnc(N2CC3CCC(C2)N3C(=O)OCC(F)(F)F)nc1 | Cytochrome P450 2C19 (Homo sapiens) | > 30 µM |

Recorded values, source ChEMBL document CHEMBL2380211.
